test system: Mus musculus; assay: Activity against maximal electroshock seizures in mice, 4 hr following oral administration of 300 mg/kg of compound; assay type: functional
// boundary case: Block equal to 70% maps to criterion not met; strictly smaller maps to criterion met

Consider the worked cases shown below.
Asked: Quick check: does CCC1(CC)O[C@@H]2[C@@H](CO[C@@]3(COS(N)(=O)=O)OC(C)(C)O[C@@H]23)O1 have Block under 70%?
Given back: criterion not met

Asked: Check CC1(C)O[C@H]2CCCO[C@@]2(COS(N)(=O)=O)O1 too.
Given back: criterion not met

Asked: Same question, CB1O[C@@H]2[C@@H](CO[C@@]3(COS(N)(=O)=O)OC(C)(C)O[C@@H]23)O1 this time
Given back: criterion met

Shift focus to the following entry.
Asked: Dear reviewer, please state whether NS(=O)(=O)OC[C@@]12OC[C@H]3OS(=O)(=O)O[C@H]3[C@@H]1OC1(CCCCC1)O2 has Block strictly beneath 70%.
Given back: criterion met

###

experiment: Inhibition concentration of the compounds were determined by inhibition of carbonic anhydrase from kidney in Rat. 95% confidence limits are given in parentheses.
assay readout: pIC50
FYI, pIC50 means -log10 of a concentration in mol per litre.

Asked: Look up pIC50 for this compound: CC1(C)O[C@H]2[C@@H]3OS(=O)(=O)O[C@@H]3CO[C@@]2(COS(N)(=O)=O)O1
Given back: 6.89

###

assay: Inhibition concentration by inhibition of carbonic anhydrase from blood in Rat. 95% confidence limits are given in parentheses.
Below, each entry is listed alongside its reported IC50.
Respond numerically; units are µM and should not be typed.

Asked: I am curious: what IC50 value has been reported for CC1(C)O[C@@H]2[C@@H](CO[C@@]3(COS(N)(=O)=O)OC(C)(C)O[C@@H]23)O1 [TOPIRAMATE] ?
Given back: 8.89

Next item in the queue.
Asked: // returns reported IC50 for input CC1(C)O[C@H]2[C@@H]3OS(=O)(=O)O[C@@H]3CO[C@@]2(COS(N)(=O)=O)O1
Given back: 0.084

###

test: Partition coefficient (logP); assay type: physicochemical; conditions: octanol/water
assay readout: logP
No unit in the answer, only the number.

These recorded examples may help you get a feel for the data.
Asked: Entry CC1(C)O[C@H]2[C@@H]3OS(=O)(=O)O[C@@H]3CO[C@@]2(COS(N)(=O)=O)O1 : reported logP = ?
Given back: -1.01

Asked: Follow-up item: CC1(C)O[C@@H]2[C@@H](CO[C@@]3(COS(N)(=O)=O)OC(C)(C)O[C@@H]23)O1 [TOPIRAMATE]
Given back: 0.5

Next:
Asked: Dear colleague, I am looking for the recorded logP of the following compound: CCC1(CC)O[C@@H]2[C@@H](CO[C@@]3(COS(N)(=O)=O)OC(C)(C)O[C@@H]23)O1
Given back: 1.55

Source: ChEMBL document CHEMBL1131331
